Hey, just so you know, these numbers are from patent US20150266974A1.

Exercise: state measured Kd for each of the binders provided.
Tested System: T1, mouse PCSK9 (mouse, UniProt Q80W65 35-694, limits assumed)
T1 construct: also called mPCSK9; msPCK9
T1 sequence (Q80W65 35-694 limits assumed): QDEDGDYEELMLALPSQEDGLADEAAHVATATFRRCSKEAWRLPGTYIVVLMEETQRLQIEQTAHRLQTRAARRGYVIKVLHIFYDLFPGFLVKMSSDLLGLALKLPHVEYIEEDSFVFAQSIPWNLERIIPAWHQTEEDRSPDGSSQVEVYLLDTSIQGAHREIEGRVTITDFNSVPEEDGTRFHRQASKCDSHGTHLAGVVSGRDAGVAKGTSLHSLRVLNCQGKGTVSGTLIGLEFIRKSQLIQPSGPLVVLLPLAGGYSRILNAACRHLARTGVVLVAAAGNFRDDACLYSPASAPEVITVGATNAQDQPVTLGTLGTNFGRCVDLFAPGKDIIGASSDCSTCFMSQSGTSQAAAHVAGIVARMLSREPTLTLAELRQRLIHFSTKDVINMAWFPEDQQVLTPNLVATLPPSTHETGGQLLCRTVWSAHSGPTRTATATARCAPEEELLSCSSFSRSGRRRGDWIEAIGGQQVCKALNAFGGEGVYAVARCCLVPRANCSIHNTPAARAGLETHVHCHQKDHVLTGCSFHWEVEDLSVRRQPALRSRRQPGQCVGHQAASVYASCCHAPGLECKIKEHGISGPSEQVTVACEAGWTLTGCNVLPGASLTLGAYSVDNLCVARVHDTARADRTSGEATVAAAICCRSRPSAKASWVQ
Procedure Details: SPR Biacore 3000, captured IgG, mPCSK9 injected, pH 5.5
Answers are plain numbers, in nM.

INSERT INTO measurements (binder, readout_unit, reported_result) VALUES
  ('5L1724H23_6L3 (antibody, V domains shown, Only CDRs printed; Full-length IgG) VH: QVQLVQSGAEVKKPGASVKVSCKASGYTFTSYYMHWVRQAPGQGLEWMGEIHPSGGRTNYNEKFKSRVTMTRDTSTSTVYMELSSLRSEDTAVYYCARERPLYAMDYWGQGTTVTVSS VL: DIQMTQSPSSLSASVGDRVTITCKASQDVHTAVAWYQQKPGKAPKLLIYSASHRYTGVPSRFSGSGSGTDFTFTISSLQPEDIATYYCQQRYSLWRTFGQGTKLEIK', 'nM', 756);

Continue with the next binder.
What value of Kd has been reported for the following binder? 6L1721 (antibody, V domains shown, L1L3-based mutant; Tested as full-length IgG) VH: QVQLVQSGAEVKKPGASVKVSCKASGYTFTSYYMHWVRQAPGQGLEWMGEISPFGGRTNYNEKFKSRVTMTRDTSTSTVYMELSSLRSEDTAVYYCARERPLYASDLWGQGTTVTVSS VL: DIQMTQSPSSLSASVGDRVTITCRASQGIHSALAWYQQKPGKAPKLLIYHASYRYTGVPSRFSGSGSGTDFTFTISSLQPEDIATYYCQQRYSLWRTFGQGTKLEIK
5.2
